System: Enterococcus faecalis
Assay: microbe, parasite or virus in culture
Format: functional
Conditions: ATCC 29212
Description: Antibacterial activity against vancomycin-sensitive Enterococcus faecalis ATCC 29212 by CLSI agar microdilution method
Assay Metric: MIC

What value of MIC has been recorded for this entry: CN[C@H](CC(C)C)C(=O)N[C@H]1C(=O)N[C@@H](CC(N)=O)C(=O)N[C@H]2C(=O)N[C@H]3C(=O)N[C@H](C(=O)N[C@@H](C(=O)O)c4cc(O)cc(O)c4-c4cc3ccc4O)[C@H](O[C@H]3C[C@](C)(N)[C@H](O)[C@H](C)O3)c3ccc(c(Cl)c3)Oc3cc2cc(c3O[C@@H]2O[C@H](CO)[C@@H](O)[C@H](O)[C@H]2O[C@H]2C[C@](C)(NCc3ccccc3Cl)[C@H](O)[C@H](C)O2)Oc2ccc(cc2Cl)[C@H]1O
0.5 µg/mL
